Just for reference, ChEMBL document CHEMBL1201862 is where these values come from.

tested on: UACC-62; test: NCI tumour cell line growth inhibition, 48 h
Active and inactive are the calls of the source. Rule as the data show it: active = GI50 up to about 1.1 µM and inactive = higher.
Outcome (select one): class 1 = active, class 0 = inactive

Call for entry Cc1ccc2c(c1)C(=O)c1ccc(C)nc1C2=O : class 0

Dear all, I need the recorded test outcome for COc1ccc(OC)c(/C=C/c2ccnc3ccccc23)c1 , thank you. class 1

Hi team, can someone confirm the assay call for Cc1cccc2c(N)c3cccc(C(=O)NCC[N+](C)(C)Cc4ccc([N+](=O)[O-])n4C)c3nc12 ? class 0

Fill in: this test's call for C1CCNCC1.S=C(S)N1CCCCC1 is ___ class 1

Now for a further molecule.
Any idea what this test logged for CC(=O)O[C@H]1[C@@H](OC(C)=O)C(C)(C)/C=C/[C@H](C)C(=O)[C@@]2(OC(C)=O)C[C@@](C)(OC(C)=O)[C@H](OC(C)=O)[C@@H]2[C@H]2OC(=O)CC[C@@]2(OC(=O)c2ccccc2)[C@@H]1OCC(C)C ? class 0

----------
Form field: GI50 (one value per entry).
test system: CAKI-1; experiment: NCI tumour cell line growth inhibition, 48 h
Calls of active or inactive are those of the source. No stated cut-off is given here; in the data, active = GI50 up to about 1.1 µM and inactive = higher.

Before answering, review these 5 worked examples.
Report the value of GI50 obtained on CAKI-1 for CC1(CCOCc2ccccc2)NC(=O)NC1=O (stereo not given) . > 100 µM (inactive)

Lab note: CAKI-1 assay, enter GI50 for COc1ccc(/C=C/c2ccnc3ccccc23)cc1OC here 15.8 µM (inactive)

Please tell me the measured GI50 for CCOC(=O)c1c(C)n(Cc2ccccc2)c2c1cc(O)c1[nH]c3c(c12)CCCC3 ; system: CAKI-1. 10.6 µM (inactive)

Report value: GI50, system: CAKI-1, compound: CC(=O)N(O)c1ccc(-c2nc3ccccc3s2)cc1 95.1 µM (inactive)

Please respond with reported GI50 (system CAKI-1) for CC[C@H](C)C1=C(OC(C)=O)[N@+]2([O-])Oc3ccc(-c4c(OC(C)=O)c(OC(C)=O)c(-c5ccc(OC(C)=O)cc5)c(OC(C)=O)c4OC(C)=O)cc3O[C@]2([C@@H](C)CC)C(=O)N1OC(C)=O . 20 µM (inactive)

***
Provide GI50, tested on CAKI-1, for COC(=O)C1=C(N)C2=C(N)Oc3ccccc3C2CC1=C(C#N)C#N (stereo not given) . 23.2 µM (inactive)

For CAKI-1, give GI50 of the listed compound: CCc1ccc(/C(C)=N/NC(N)=S)cc1 70 µM (inactive)

Report GI50 from CAKI-1 testing of COc1ccc(OC)c(/C=C/c2ccnc3ccccc23)c1 1.28 µM (inactive)

Please report the measured GI50 for O=C(CSc1nc2ccc(I)cc2c(=O)n1Cc1ccccc1)NN1C(=O)c2ccccc2C1=O tested on CAKI-1. 9.23 µM (inactive)

Write down the reported GI50 (system: CAKI-1) of O=C(O)/C(Cl)=C(\Cl)C(=O)NC1C2CC3CC(C2)CC1C3 (stereo not given) > 100 µM (inactive)

Answer briefly: GI50 recorded on CAKI-1 for CN/N=C(/C=C/c1ccccc1)C(C)C > 100 µM (inactive)

----------
GI50 overview
test system: EKVX; experiment: NCI tumour cell line growth inhibition, 48 h
Calls of active or inactive are those of the source. Cut-off read from the data, not from the text of the source: active = GI50 up to about 1.1 µM and inactive = higher.

Complete the entry with GI50 for Nc1nnnn1CCO > 100 µM (inactive)

Give the reported GI50 for this compound. COC(=O)C(C)(Cc1ccc2c(c1)nnn2C(C)=O)NC(C)=O (stereo unspecified) > 100 µM (inactive)

Assign GI50 to the following record: O=C(NN1C(=O)C(Cl)C1c1cccc([N+](=O)[O-])c1)c1ccccc1O (stereo unspecified) > 100 µM (inactive)

Kindly indicate its recorded GI50. Item: O=C1c2ccccc2C2(O)c3cc4ccccc4cc3OC12O (stereo unspecified) 41.7 µM (inactive)
